Target: human TAS2R4 (Homo sapiens, UniProt Q9NYW5)
Construct: expressed in transfected cells; host or cells: HEK293T-Gα16gust44
Sequence (Q9NYW5 whole entry): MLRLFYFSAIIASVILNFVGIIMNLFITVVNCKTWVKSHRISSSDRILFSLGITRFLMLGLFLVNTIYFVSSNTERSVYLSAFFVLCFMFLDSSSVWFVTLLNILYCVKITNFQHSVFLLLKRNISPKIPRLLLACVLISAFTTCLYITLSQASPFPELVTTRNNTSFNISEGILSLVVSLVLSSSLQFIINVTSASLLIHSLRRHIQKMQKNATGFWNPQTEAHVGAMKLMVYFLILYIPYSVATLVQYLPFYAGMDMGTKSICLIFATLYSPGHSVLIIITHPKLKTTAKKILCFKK
Assay: Calcium imaging assay (FLIPR), HEK293T-Gα16gust44 cells transfected with human TAS2R4; also: test concentration or dose not given here
Type: cell-based
Settings: Time (s) 6
measurement.label: RLU, fluorescence trace (RLU)
Give the quantity in RLU, number only.

Use the examples below as a reference point.
C[C@H](CCC(=O)NCCS(=O)(=O)O)[C@H]1CC[C@H]2[C@@H]3CC[C@@H]4C[C@H](O)CC[C@]4(C)[C@H]3CC[C@]12C [Taurolithocholic Acid, taurolithocholic acid] ... -0.9261
C[C@H](CCC(=O)NCCS(=O)(=O)O)[C@H]1CC[C@H]2[C@@H]3[C@H](O)C[C@@H]4C[C@H](O)CC[C@]4(C)[C@H]3C[C@H](O)[C@]12C [Taurocholic Acid, taurocholic acid] ... 3.789
C[C@H](CCC(=O)NCC(=O)O)[C@H]1CC[C@H]2[C@@H]3[C@H](O)C[C@@H]4C[C@H](O)CC[C@]4(C)[C@H]3C[C@H](O)[C@]12C [Glycocholic Acid, glycocholic acid] ... -25.8877
C[C@H](CCC(=O)O)[C@H]1CC[C@H]2[C@@H]3CC[C@@H]4C[C@H](O)CC[C@]4(C)[C@H]3C[C@H](O)[C@]12C [Deoxycholic Acid, deoxycholic acid] ... -22.8766
C[C@H](CCC(=O)O)[C@H]1CC[C@H]2[C@@H]3[C@H](O)C[C@@H]4C[C@H](O)CC[C@]4(C)[C@H]3C[C@H](O)[C@]12C [Cholic Acid, cholic acid] ... 2.918

Now consider the entry below.
*Q* Consider the compound shown here: C[C@H](CCC(=O)O)[C@H]1CC[C@H]2[C@@H]3[C@@H](O)C[C@@H]4C[C@H](O)CC[C@]4(C)[C@H]3CC[C@]12C [Ursodeoxycholic Acid, ursodeoxycholic acid] What is its recorded RLU, fluorescence trace?
*A* -24.0432
